# Study system: Brd2(1) Leu110-Ile (Homo sapiens, UniProt P25440, L110I)
# Sequence (P25440 74-180 L110I limits assumed): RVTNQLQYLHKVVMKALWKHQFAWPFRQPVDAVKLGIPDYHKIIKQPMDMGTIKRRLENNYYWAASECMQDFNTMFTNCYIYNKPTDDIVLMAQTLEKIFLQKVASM
# Assay text: ITC reverse titration of protein into compound
Parameter measured: Kd
Please state the value followed by its unit.

Q: Query (molecule): COC(=O)[C@H](C)[C@@H]1N=C(c2ccc(Cl)cc2)c2cc(OC)ccc2-n2c(C)nnc21 (racemic) ; field requested: Kd
Ans: 260 nM

----------
# Study system: Brd2(1)*(Trp097His) (Homo sapiens, UniProt P25440, W97H)
# Construct: Plasmids of the eight single BET bromodomain constructs Brd2(1), Brd2(2), Brd3(1), Brd3(2); His6 (N); made in house; host or cells: E. coli BL21(DE3)
# Sequence (P25440 74-180 W97H limits assumed): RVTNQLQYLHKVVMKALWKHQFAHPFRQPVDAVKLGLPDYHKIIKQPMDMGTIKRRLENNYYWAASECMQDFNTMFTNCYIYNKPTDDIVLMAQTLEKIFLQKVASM
# Assay text: DSF thermal shift
# Assay type: binding
# Reported conditions: mutant
Parameter measured: ΔTm Brd2(1)*(Tryp097-His) (K)
One number for each entry, in K.

Reference set (2 entries):
compound="COC(=O)CC1N=C(c2ccc(Cl)cc2C)c2cc(OC)ccc2-n2c(C)nnc21 (racemic)" parameter_measured="ΔTm Brd2(1)*(Tryp097-His)" obs_value=0.9
compound="COc1ccccc1S(=O)(=O)Nc1ccc2c(c1)CN(C)C(=O)N2 [PFI-1, reference compound]" parameter_measured="ΔTm Brd2(1)*(Tryp097-His)" obs_value=1.9

Return reported ΔTm Brd2(1)*(Tryp097-His) values for all items listed beneath this line.
1. CN1Cc2cc(NS(=O)(=O)c3ccccc3-c3ccccc3)ccc2NC1=O
2. Cc1cccc(Cl)c1S(=O)(=O)Nc1ccc2c(c1)CN(C)C(=O)N2

Ans:
1.3
0.0

----------
# Study system: Brd4(2) (Homo sapiens)
# Construct: Plasmids of the eight single BET bromodomain constructs Brd2(1), Brd2(2), Brd3(1), Brd3(2), Brd4(1), Brd4(2), Brdt(1) and Brdt(2); His6 (N); made in house; host or cells: E. coli BL21(DE3)
# Assay text: DSF thermal shift
# Assay type: binding
# Reported conditions: wild type
Friendly reminder: ΔTm Brd4(2) below 2 K is 1, at or above is 0.

Illustrative cases are given below, each with its answer.
compound="COC(=O)[C@@H](CC1CC1)[C@@H]1N=C(c2ccc(Cl)cc2)c2cc(OC)ccc2-n2c(C)nnc21 (racemic)" assigned_category=1
compound="CC[C@@H](C(=O)OC)[C@@H]1N=C(c2ccc(Cl)cc2)c2cc(OC)ccc2-n2c(C)nnc21 (racemic)" assigned_category=1
compound="CCC[C@@H](C(=O)OC)[C@@H]1N=C(c2ccc(Cl)cc2)c2cc(OC)ccc2-n2c(C)nnc21 (racemic)" assigned_category=0
compound="CC[C@H](C(=O)OC)[C@@H]1N=C(c2ccc(Cl)cc2)c2cc(OC)ccc2-n2c(C)nnc21 (racemic)" assigned_category=1

Could you now consider this next compound?
Q: State whether 2 K exceeds ΔTm Brd4(2) recorded for CCC[C@H](C(=O)OC)[C@@H]1N=C(c2ccc(Cl)cc2)c2cc(OC)ccc2-n2c(C)nnc21 (racemic) .
Ans: 1

----------
# Study system: brd4(1)L094A (Homo sapiens, UniProt O60885, L94A)
# Construct: Plasmids of the eight single BET bromodomain constructs Brd2(1), Brd2(2), Brd3(1), Brd3(2), Brd4(1), Brd4(2), Brdt(1) and Brdt(2); His6 (N); made in house; host or cells: E. coli BL21(DE3)
# Assay text: DSF thermal shift
# Type: binding
# Reported conditions: mutant
Exercise: state measured ΔTm Brd4(1)* (L094A) for each of the molecules provided.
Numbers only, in K.

molecule="COC(=O)[C@H](CC1CC1)[C@@H]1N=C(c2ccc(Cl)cc2)c2cc(OC)ccc2-n2c(C)nnc21 (racemic)" parameter_measured="ΔTm Brd4(1)* (L094A)" unit_text=K obs_value=5.6

Required: ΔTm Brd4(1)* (L094A), one value per molecule below.
1. COC(=O)[C@@H](CC1CC1)[C@@H]1N=C(c2ccc(Cl)cc2)c2cc(OC)ccc2-n2c(C)nnc21 (racemic)
2. CC[C@@H](C(=O)OC)[C@@H]1N=C(c2ccc(Cl)cc2)c2cc(OC)ccc2-n2c(C)nnc21 (racemic)
3. CCC[C@H](C(=O)OC)[C@@H]1N=C(c2ccc(Cl)cc2)c2cc(OC)ccc2-n2c(C)nnc21 (racemic)
4. CCC[C@@H](C(=O)OC)[C@@H]1N=C(c2ccc(Cl)cc2)c2cc(OC)ccc2-n2c(C)nnc21 (racemic)

Ans:
[1.3, 10.0, 2.4, 6.4]
